Tested on: Escherichia coli TOP10
Assay method text: shrunken log2 fold change of peptide-encoding DNA abundance (4.5 h post-induction vs induction); higher = less antimicrobial activity (less host growth inhibition)
Assay context: time post-induction: 4.5 h; library: site-saturation at positions 5, 18, 19, 20
Please use Satisfied whenever shrunken log2 fold change is not below -0.2, and Not satisfied whenever it is.

Record excerpt, results attached:
RRIRHRPPRLPRPRPRPVIEPRP | Satisfied
RRIRWRPPRLPRPRPRPYHFPRP | Satisfied

Entry RRIRGRPPRLPRPRPRPDSNPRP : is its shrunken log2 fold change no less than -0.2?
Satisfied

Entry RRIRVRPPRLPRPRPRPLNSPRP : is its shrunken log2 fold change no less than -0.2?
Not satisfied

Entry RRIRHRPPRLPRPRPRPVKCPRP : is its shrunken log2 fold change no less than -0.2?
Satisfied

Entry RRIRVRPPRLPRPRPRPKMAPRP : is its shrunken log2 fold change no less than -0.2?
Not satisfied

Entry RRIRPRPPRLPRPRPRPCRYPRP : is its shrunken log2 fold change no less than -0.2?
Satisfied

Entry RRIRCRPPRLPRPRPRPDGMPRP : is its shrunken log2 fold change no less than -0.2?
Not satisfied

Entry RRIRYRPPRLPRPRPRPRYLPRP : is its shrunken log2 fold change no less than -0.2?
Satisfied

Entry RRIRKRPPRLPRPRPRPMVWPRP : is its shrunken log2 fold change no less than -0.2?
Satisfied

---

Tested on: Escherichia coli TOP10
Assay method text: shrunken log2 fold change of peptide-encoding DNA abundance (4.5 h post-induction vs induction); higher = less antimicrobial activity (less host growth inhibition)
Assay context: time post-induction: 4.5 h; library: site-saturation at positions 5, 18, 19, 20
Please use class 1 whenever shrunken log2 fold change is not below -0.03, and class 0 whenever it is.

RRIRTRPPRLPRPRPRPIVWPRP | class 0

Entry RRIRMRPPRLPRPRPRPPLCPRP : is its shrunken log2 fold change no less than -0.03?
class 1

Entry RRIRVRPPRLPRPRPRPSMMPRP : is its shrunken log2 fold change no less than -0.03?
class 0

Entry RRIRTRPPRLPRPRPRPVWKPRP : is its shrunken log2 fold change no less than -0.03?
class 1

Entry RRIRHRPPRLPRPRPRPSCTPRP : is its shrunken log2 fold change no less than -0.03?
class 0

Entry RRIRARPPRLPRPRPRPQKCPRP : is its shrunken log2 fold change no less than -0.03?
class 1

Entry RRIRNRPPRLPRPRPRPKSRPRP : is its shrunken log2 fold change no less than -0.03?
class 1

Entry RRIRRRPPRLPRPRPRPMNCPRP : is its shrunken log2 fold change no less than -0.03?
class 1

---

Test system: Escherichia coli TOP10;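 further: peptides expressed intracellularly from a pBAD plasmid library in pooled LB shake-flask culture, induced with 0.3% L-arabinose, DNA abundance read by NGS, three biological replicates, DESeq2 with apeglm shrinkage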
Assay method text: shrunken log2 fold change of peptide-encoding DNA abundance (4.5 h post-induction vs induction); higher = less antimicrobial activity (less host growth inhibition)
Assay context: time post-induction: 4.5 h; library: site-saturation at positions 5, 18, 19, 20
Entries and their shrunken log2 fold change values follow.
Give the figure by itself; no unit, no explanation.

// solved cases for shrunken log2 fold change follow
RRIRFRPPRLPRPRPRPPYDPRP | -0.49
RRIRSRPPRLPRPRPRPHDNPRP | -0.308
RRIRKRPPRLPRPRPRPGKFPRP | -0.174

Then this sequence:
Using the record for RRIRIRPPRLPRPRPRPYGCPRP , report its shrunken log2 fold change.
0.0504
